Assay: protease stability score; higher = more stable; yeast display proteolysis, trypsin and chymotrypsin;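 further: relative to predicted unfolded state with 0 unfolded-like and 1 meaning tenfold more protease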

# SEQUENCE, protease stability score
data = [
    ("TEEEKLARFAWHLRLHAEETGNEELIETLMDPNVKIDIDINGREIHMIGREEYIRWFNEYGFKHVEHVDEREMRVQGDYLDIRGRVIFHVNGQRIDTETQHHILVVDGRIKEIHDIYH", 1.69),
    ("DEKTEISEFALELFKESYDTGDEHTINRLADPHYRVVIGDKDLIGMEWLEHVIRHHKERVDHYRDVTVKDIKVIGNKVIADIRSHVHVDGQERDLDIDLVVFKINGRWRIKMIKID", 1.15),
    ("TEDEELIERYVRFFLKIMETGDEKLTERMMDPDARFEIGDKEEHGREAIYEWLSKIKNIRIKIHHIKIQGDKLHLDVRFHINGKEIEVEIVSKKIDGKWMVHSVIVK", 1.5),
    ("DEENDLMLEMAFKFMHDWLTGDFDKETKLADPDVKYDVGEFRFHGREEVTKWLEDMERSLGIDHQFLNIHDLKVQGDKVHIKGELVLIVNGRKETRRVDLHFEIVDGRMRKVTIEKR", 1),
    ("SEEEKNARDFLRLIFNHVHTGDFRHMSKLFDPHVRIQIGDKVFHGREEAERVWLEWRVEDIKIRHIDIQGDKLIVDTEVHGNFNGRNRNIETEIHVRKVDGKWILESMSVI", 2.54),
    ("SETEKHLQDIADILVHAEITGDEETLNKMLDPDVRMHNEVNGREYHIHGREEVLKHWREWVTRFKGARIDIEDVHIINGVVHVNMKIIFNGRRIESRLDVEVVNGRVRTIRIHER", 2.15),
    ("SERREFSNFTMQMTITVTLTGDFHTSHRFVDPHARWEQGDKEYHGREIFAKTLLDKSSELGVDHYDIKTIHIQGEKVTVHLRVEVNGVEFELILRAHKINGVWLMESVEVRER", 0.971),
    ("DKEHKESTKATHDVLRSWKTGDERFREELADPNARMEFNGREHVGREFMSELLRHLWEELGVDHMELKRVIIQGDKIHIDMDLTVGDKSIHLHVTVQKINGKWIIKSIRLELT", -0.192),
]

###

Known protease stability score of a selection of sequences
Assay: protease stability score; higher = more stable; yeast display proteolysis, trypsin and chymotrypsin;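 further: relative to predicted unfolded state with 0 unfolded-like and 1 meaning tenfold more protease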
VALUE_KIND: protease stability score

# SEQUENCE, VALUE_KIND, ASSAY_RESULT
rows = [
    ("DEEDEILRHFLEEFWRAIRTGDEDTLMHLMDPHAKEEVNGRELHGRHEISRHLVKLGIKHMHIDDSKRYGDKITLHITVEVNGRKIDLEVYAIKVDGRWKIEHSQIK", "protease stability score", 1.05),
    ("DEDEKIYRWALSVFLRNFLTGDEDSLRRMMDPDVRLEVGDKEDHGMEKVVRWLTEMMRKFKGATVHLRDHKTQGNKVHLDLELNVGDKHSKLIIIIKKVDGQWIVDEFTVH", "protease stability score", 1.52),
    ("DEEHELTRKVLTEMWEIFMTGDWKRWHELLDPHVRFVYVQGEFEDVHHGREEVKRLFDKLLKDLGFKHSELTDTRLVGNKAVIDGTIHVGDKIYDFHLNVLVVNGKVKTIEVEIREK", "protease stability score", 1.94),
    ("TEEEEEMRKMSELYIRAILTGDEDEYTKLADPDDRVNFNGRKLVGRKEVKEWLRKLRDKFKNITLHHFEIKELRVYNGRIRMIAESEVNIGDKVWRFHLHFIFEKFDGVWVLTEESTE", "protease stability score", 1.64),
    ("SEHEHMIQVALELWLHTLHTGDEHKEERLHDPHARLRIGDKELHGREDVIRWMRKVKNVTINRVEVRRINFQGDKAILLVRIDGEFDGRRIDTEVIIIVVKVDGRWLFESMEID", "protease stability score", 1.31),
    ("TEEEEDLKEVLRVELETWHTGNWDEMRRLLDPHARLIFDGQTFHGRELAVKFFQELLTRFDVLHIIPQSVSVYNGRVEIHEEMHEVVDGQTIRRTYHVRSSKINGRWSVEVLVIQ", "protease stability score", 0.443),
    ("DDIEEILRRMTELFWRALATGDEREERELADPHVRLDVNGRTYHGMEKVREWYRRIDHHHFETWHYHHIEFQGEKVYIEGRMRVNLDINGQELRIDTFTIILMLVINGRIHRFQYQVH", "protease stability score", 0.467),
    ("DEEDEILERNFRKMLEDWKTGDEEMYSKLIDPHAKVDYNGREFVGREYAVEVWHKMGVDHIILRRSDVQGDKIKLDFESRQGDKSSNLKMESEKVNGVWLLHSVRYE", "protease stability score", 1.11),
    ("DEETKETIELMEKFRQDEETGDWRSLHRMADPHTKLVVDGREYHGMEHATTYLVEFIEHFGVKHFHIEDSHVVDGRIVLHTRVEVGDKSREIRIVALKINGVWLMQSIEIG", "protease stability score", 0.102),
]

###

Known protease stability score of a selection of sequences
Test: protease stability score; higher = more stable; yeast display proteolysis, trypsin and chymotrypsin;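 further: relative to predicted unfolded state with 0 unfolded-like and 1 meaning tenfold more protease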
VALUE_KIND: protease stability score

# SEQUENCE, VALUE_KIND, ASSAY_RESULT
data = [
    ("DHEEEEMRDRFKVLMRALLTGDFEELIRQMDPDYRLDINGRELIGREEYRKHLEKQLKHWRWKRIDVKHVETQGDKLHARINVHGDIDGRDINTETDWHLEVIDGRVRSEKISIR", "protease stability score", 1.58),
    ("SEDEEMIRELAEIFIKNWETGDEEDRWKLMDPNARIEVNGKQNHGREEDERHSKELGFKHIEVRIKRSRIVGDKAEIDGELYMRYDGKTEHVKVHIHVQIVDGRIKIVSFKIR", "protease stability score", 1.31),
    ("DDHSSARKFADEFREMMKTGDSTKADELFDPNVRVEVGDKRYHGREQAVDWIRHLVDRYDHIEIRIDHITVRGDRISIVFTVHYEKNGETTYDRYVMVAVDRNGRAQIKMLRKG", "protease stability score", 2.09),
    ("DEETQNVRTILEEFVHDFETGDERLMHRYLDPNVRIDWNGRDYHGRETMFQMIRELSDKIKNIRIRIEHIDIINGVIIIHGDLHYNGKDVKTTLYFLKVNGRWLITRLEYK", "protease stability score", 1.39),
    ("SEDDEILERMLRELIHLIRTGDEDSIREMADPNVRLIINGKEFHGMEEYIKTWHRILERFDHLRHVELHDEHRFDGRVRIWGTLNHRIGDKHTRFTVHIVALKFNGRWILKSEEIT", "protease stability score", 1.36),
    ("DEEEKVIKDVVDMLRKALRTGDEERIRELADPDVRIEQGDKELHGRELWLEWLKEIRTERVILHVRRVRHFNGKIINEIEVRMDVRVGEFRHESTVSTILIMEKFNGRWHIRSMIIE", "protease stability score", 1.5),
    ("SEMDENIHEALKEEMHAWVTGDFDKIEHLLDPNTRVEQGEFIYHGRFFVEFVRRRVDHVFWHHVEIRHIENVDGRMIIDGIVDFEETAENHRHRHTIRTIIYLEKIDGKWYIRSLEVK", "protease stability score", 0.874),
]

###

Assay: protease stability score; higher = more stable; yeast display proteolysis, trypsin and chymotrypsin;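 further: relative to predicted unfolded state with 0 unfolded-like and 1 meaning tenfold more protease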
Known protease stability score of a selection of sequences
VALUE_KIND: protease stability score

# SEQUENCE, ASSAY_RESULT
data = [
    ("DEDQEIVERFTSLINHLILTGDEEEMKKLLDPNARWIYGDKHIHGRDEFIELLRQIKNVKTRFYIRHIDVINGKLVMHVEIELEFNGKRDHLRQIIISEKVDGRWRAKEFETR", 0.66),
    ("DEHEEMFTKLMRELIHIWLTGDEDILNHMADPNVLVEINGRREHGREALSRFLEKFKNVRIHLHSSTAIGEKSIIDTQININGKQIKVRVEIYMVDGKIKEIRLDIQ", 1.29),
    ("KEEEEKLERLAELVIELFLTGDWKTLHSLLDPHYRSEIDGRTVHGRESHQTLLEEILRHLRIRRVHIEEYRIIDGVAWIDSRITLEINGRTVDTHMHIHLEFFNGRLHSIRVEIH", 2.47),
    ("DEQHKEVRTFLEIHINMRATGNEEILFHQVDPHVRLIINGRQFHGWEEYEKFAHTSARFFKNVQIRIHRVEVYIQGDKIHVNMHVWYNVNGQTMEVDLHSEMIKVDGQWRLDSEIISIR", 1.33),
    ("SEEEDLFRKIIELLLRLSKTGDEETWRRLMDPHARLEINGRIFHGREYAERFMTQFDHIHSIEIKDMHIYNGKVEEHGHVDGIVNGRRTKHDMVFILVKVDGVWLIEEVVVR", 1.39),
    ("DEDFENASRTLKKFYEDEATGDEDALSELVDPNTRLDINGQQVHGWENFRKWIHHLGIKHVILHIRRYDSQGDKLHLETEEVHDFNGVEERRDTRLLLLKVDGKWIFKEIEVK", 1.41),
    ("DEREKHAKDFFDILLHLLLTGDWDKIIRMADPDVKLEIGDKRFHGMEHISETWLKRFTRLGVDHQHFHLHTVKFINGVATIHGRQHLHVGDKTIDLEVIIYVEKIDGRWILNNIEVR", 1.11),
    ("DEEEEHAITFMKILIHLWITGDWETLKRLADPDTKVIERFNGKRVEIHGRELWSKIRKEIIDQLRIRIHPHHVSVVGDKLYSDEHLVFHYNGRDIRLDIHLEMVVVNGRMKHFRFHEE", 1.06),
]

These measurements were taken from the NTF2 design screens of Basanta et al. (2020).
